// provenance: ChEMBL document CHEMBL3580623

Biological target: Nuclear receptor ROR-gamma (Homo sapiens)
Assay: Inverse agonist activity at GAL4-fused human RORc expressed in HEK293T cells assessed as suppression of basal transcriptional activity after 20 hrs by dual-glo luciferase reporter gene assay
Assay type: functional, cell-based, HEK-293T

Smiles Text | Display Unit | EC50
CC(=O)N1CCN(c2ccc(CN(C3CCC3)S(=O)(=O)Cc3ccccc3F)c(F)c2)CC1 | nM | 15

----------
Target: Nuclear receptor ROR-gamma (Homo sapiens)
Assay type: functional
# maps each entry to its log10 EC50
Assay Metric: log10 EC50 (log10 of the value in nM)

Smiles Text | Value Measured
CC(=O)N1CCN(c2ccc(CN(C3CCC3)S(=O)(=O)Cc3cc(Cl)cc(Cl)c3)c(F)c2)CC1 | 1.60
CC(=O)N1CCN(c2ccc(CN(C3CCC3)S(=O)(=O)Cc3cccc(Cl)c3)c(F)c2)CC1 | 0.95
CC(=O)N1CCN(c2ccc(CN(C3CCC3)S(=O)(=O)CCc3ccccc3)c(F)c2)CC1 | 2.49
COc1ccc(S(=O)(=O)N(Cc2ccc(N3CCN(C(C)=O)CC3)cc2F)C2CCC2)cc1 | 3.52
CC(=O)N1CCN(c2ccc(CN(C3CCC3)S(=O)(=O)c3ccc(Cl)cc3Cl)c(F)c2)CC1 | 2.34
CC(=O)N1CCN(c2ccc(CN(C3CCC3)S(=O)(=O)Cc3ccc(Cl)cc3)c(F)c2)CC1 | 1.52
CC(=O)N1CCN(c2ccc(CN(C3CCC3)S(=O)(=O)c3ccc(OC(F)F)cc3)c(F)c2)CC1 | 2.18

----------
Overview of recorded log10 EC50 for various molecules
Molecular target: Nuclear receptor ROR-gamma (Homo sapiens, UniProt P51449)
Sequence (P51449 whole entry): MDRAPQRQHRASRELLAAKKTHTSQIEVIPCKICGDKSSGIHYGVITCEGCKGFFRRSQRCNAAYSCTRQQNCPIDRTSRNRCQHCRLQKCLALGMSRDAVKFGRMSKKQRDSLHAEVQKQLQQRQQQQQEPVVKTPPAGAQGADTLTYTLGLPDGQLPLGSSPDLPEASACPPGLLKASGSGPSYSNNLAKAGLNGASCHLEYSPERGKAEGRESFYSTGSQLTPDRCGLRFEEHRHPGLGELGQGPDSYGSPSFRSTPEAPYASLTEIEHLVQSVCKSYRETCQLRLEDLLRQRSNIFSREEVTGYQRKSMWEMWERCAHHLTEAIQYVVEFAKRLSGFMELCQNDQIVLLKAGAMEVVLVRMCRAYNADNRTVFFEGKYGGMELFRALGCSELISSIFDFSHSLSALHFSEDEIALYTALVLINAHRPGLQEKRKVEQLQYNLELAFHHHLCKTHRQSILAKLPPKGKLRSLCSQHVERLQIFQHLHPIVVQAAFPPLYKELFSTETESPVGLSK
Assay type: functional
Assay Metric: log10 EC50 (log10 of the value in nM)

Smiles Text | System Tested | log10 EC50
CC(=O)N1CCN(c2ccc(CN(C3CCC3)S(=O)(=O)c3ccc(OC(F)(F)F)cc3)c(F)c2)CC1 | Nuclear receptor ROR-gamma (Homo sapiens, UniProt P51449) | 2.20
CC(=O)N1CCN(c2ccc(CN(C3CCC3)S(=O)(=O)Cc3ccc(F)cc3)c(F)c2)CC1 | Nuclear receptor ROR-gamma (Homo sapiens, UniProt P51449) | 0.85
CC(=O)N1CCN(c2ccc(CN(C3CCC3)S(=O)(=O)c3ccc(C(F)(F)F)cc3)c(F)c2)CC1 | Nuclear receptor ROR-gamma (Homo sapiens, UniProt P51449) | 2.48
CC(=O)N1CCN(c2ccc(CN(C3CCC3)S(=O)(=O)Cc3ccccc3Cl)c(F)c2)CC1 | Nuclear receptor ROR-gamma (Homo sapiens, UniProt P51449) | 0.60
CC(=O)N1CCN(c2ccc(CN(C3CCC3)S(=O)(=O)Cc3cccc(F)c3)c(F)c2)CC1 | Nuclear receptor ROR-gamma (Homo sapiens, UniProt P51449) | 1.00
CC(=O)N1CCN(c2ccc(CN(C3CCC3)S(=O)(=O)Cc3ccccc3)c(F)c2)CC1 | Nuclear receptor ROR-gamma (Homo sapiens, UniProt P51449) | 1.04
CC(=O)N1CCN(c2ccc(CN(C3CCC3)S(=O)(=O)Cc3ccccc3F)c(F)c2)CC1 | Nuclear receptor ROR-gamma (Homo sapiens, UniProt P51449) | 0.48
CC(=O)N1CCN(c2ccc(CN(C3CCC3)S(=O)(=O)c3ccc(Cl)cc3)c(F)c2)CC1 | Nuclear receptor ROR-gamma (Homo sapiens, UniProt P51449) | 2.28
CC(=O)N1CCN(c2ccc(CN(C3CCC3)S(=O)(=O)c3ccc(C(C)(C)C)cc3)c(F)c2)CC1 | Nuclear receptor ROR-gamma (Homo sapiens, UniProt P51449) | 2.08
